Recorded values, source patent US8389568B2.

target_or_test_system: human IDO (Homo sapiens, UniProt P14902)
Sequence (P14902 whole entry): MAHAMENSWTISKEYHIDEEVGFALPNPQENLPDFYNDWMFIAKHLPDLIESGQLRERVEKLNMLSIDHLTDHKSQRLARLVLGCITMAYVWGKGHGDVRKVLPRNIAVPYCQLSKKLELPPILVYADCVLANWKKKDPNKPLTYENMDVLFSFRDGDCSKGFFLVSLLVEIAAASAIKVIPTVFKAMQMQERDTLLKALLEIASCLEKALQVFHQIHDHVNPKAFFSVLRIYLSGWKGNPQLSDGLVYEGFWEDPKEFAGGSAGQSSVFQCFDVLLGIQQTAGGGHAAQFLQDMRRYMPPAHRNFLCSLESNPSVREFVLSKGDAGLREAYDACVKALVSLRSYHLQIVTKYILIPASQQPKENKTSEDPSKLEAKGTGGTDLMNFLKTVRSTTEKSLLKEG
test_details: IDO inhibition enzyme assay (N-formylkynurenine/kynurenine formation read at 490 nm)
Type: biochemical
test_settings: purified recombinant IDO(1); L-Trp substrate; ascorbic acid/methylene blue reductant, catalase; pH 6.5; 37° C. for 60 minutes; read-out: IC50
Items are presented alongside their recorded IC50.

# compound, scale_unit, IC50
rows = [
    ("CC1(C)OC2=C(C(=O)c3ccccc3C2=O)[C@H](O)[C@@H]1O [Compound 12]", "nM", 1500),
    ("C=CCN[C@H]1C2=C(OC(C)(C)[C@H]1O)C(=O)c1ccccc1C2=O (stereo in doubt) [Compound 17]", "nM", 183),
    ("CO[C@H]1C2=C(OC(C)(C)[C@@H]1O)C(=O)c1ccccc1C2=O (stereo in doubt) [Compound 22]", "nM", 3960),
    ("COC(=O)C1(C)C=CC2=C(O1)C(=O)c1ccccc1C2=O (stereo not shown) [Compound 29]", "nM", 161),
    ("CCCCN[C@H]1C2=C(OC(C)(C)[C@@H]1O)C(=O)c1ccccc1C2=O (stereo in doubt) [Compound 20]", "nM", 70),
    ("CC1(C)OC2=C(C(=O)c3ccccc3C2=O)[C@@H](O)[C@@H]1Br (relative stereo) [Compound 27]", "nM", 290),
    ("CCCCN[C@H]1C2=C(OC(C)(C)[C@H]1O)C(=O)c1ccccc1C2=O (stereo in doubt) [Compound 19]", "nM", 160),
    ("CC1(C)C=CC2=C(O1)C(=O)c1cccc(O)c1C2=O [Compound 28]", "nM", 58),
    ("CC1(C)OC2=C(C(=O)c3ccccc3C2=O)C2OC21 (stereo not shown) [Compound 14]", "nM", 3300),
    ("CO[C@H]1C2=C(OC(C)(C)[C@H]1O)C(=O)c1ccccc1C2=O (stereo in doubt) [Compound 21]", "nM", 976),
]
